# tested_target: human CB1 receptor (Homo sapiens, UniProt P21554)
# Construct: expressed in transfected cells; host or cells: HEK293
# Sequence (P21554 whole entry): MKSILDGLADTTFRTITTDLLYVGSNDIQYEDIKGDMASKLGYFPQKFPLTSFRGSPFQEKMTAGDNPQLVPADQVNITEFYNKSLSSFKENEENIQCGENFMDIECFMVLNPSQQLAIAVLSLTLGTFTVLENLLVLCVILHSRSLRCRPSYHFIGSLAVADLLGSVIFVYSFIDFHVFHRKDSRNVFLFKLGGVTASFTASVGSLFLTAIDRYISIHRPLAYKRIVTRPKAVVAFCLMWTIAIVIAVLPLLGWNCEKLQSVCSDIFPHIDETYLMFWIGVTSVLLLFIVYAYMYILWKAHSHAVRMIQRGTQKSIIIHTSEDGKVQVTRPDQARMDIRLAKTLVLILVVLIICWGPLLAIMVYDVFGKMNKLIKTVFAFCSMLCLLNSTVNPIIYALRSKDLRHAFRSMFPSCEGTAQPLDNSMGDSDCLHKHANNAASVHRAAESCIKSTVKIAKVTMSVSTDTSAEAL
# procedure_summary: bioSensAll GAPL-Gi2 BRET biosensor assay in HEK293 cells transfected with hCB1; test compound added before EC75-80 of agonist CP55,940 (0.1 nM)
# Type: cell-based
# condition_description: vs CP55,940 0.1 nM (EC75-80), read-out: CB1 wt Gi2 IC50
pIC50: recorded values
Expect pIC50 as a plain number equal to -log10 of the molar concentration.

CN(CP(C)(C)=O)c1nc(N2CCC(C)(C(N)=O)CC2)c2nc(-c3ccccc3Cl)n(-c3ccc(Cl)cc3)c2n1: 8.04
C[C@H](O)COc1nc(N2CCC(C)(C(N)=O)CC2)c2nc(-c3ccccc3Cl)n(-c3ccc(Cl)cc3)c2n1: 8.99
COC(=O)N1CCN(c2nc(OCC(C)(C)O)nc3c2nc(-c2ccccc2Cl)n3-c2ccc(Cl)cc2)CC1: 8.90
C[C@@H](O)CNc1nc(N2CCC(C)(C(N)=O)CC2)c2nc(-c3ccccc3Cl)n(-c3ccc(Cl)cc3)c2n1: 8.94
CN(CCO)c1nc(N2CCC3(CCNC3=O)CC2)c2nc(-c3ccccc3Cl)n(-c3ccc(Cl)cc3)c2n1: 9.39

// field: pIC50; key: `CCNC1(C(N)=O)CCN(c2nc(N)nc3c2nc(-c2ccccc2Cl)n3-c2ccc(Cl)cc2)CC1` ; value = 8.05

// field: pIC50; key: `CC(C)(O)COc1nc(N2CCC(C)(O)CC2)c2nc(-c3ccccc3Cl)n(-c3ccc(Cl)cc3)c2n1` ; value = 9.14
